# testTarget: DmhA (dimethoate hydrolase) of Rhizorhabdus wittichii (Rhizorhabdus wittichii)
# assayName: enzyme kinetics with substrate in
parameterMeasured: Ki (µM)
Field: numeric (µM). Do not append units.

For the binder shown here, QPKK [p53-peptide QPKKac] , give the reported Ki. 154
